# method notes: Clearance in Han Wistar rat at 2 umol/kg, po or 1 umol/kg, iv
# test conditions: in vivo
reported endpoint: clearance (mL/min/kg)

C=CC(=O)N1C[C@@H]2COc3cnc4cc(-c5c(O)cccc5F)c(Cl)cc4c3N2C[C@H]1C 7

1. C=CC(=O)N1CCN2c3c(cnc4c(F)c(-c5c(O)cccc5F)c(Cl)cc34)N(C)C(=O)[C@H]2C1
2. C=CC(=O)N1C[C@@H]2C(=O)N(C)c3cnc4c(F)c(-c5c(O)cccc5F)c(Cl)cc4c3N2C[C@H]1C
3. C=CC(=O)N1CCN2c3c(cnc4cc(-c5c(O)cccc5F)c(Cl)cc34)OC[C@H]2C1
Query block: I would appreciate it if you could sort these 3 compounds by clearance, starting from the smallest number. Sort and list the labels as requested.
Result block: 2, 1, 3
(2: 4 mL/min/kg, 1: 6 mL/min/kg, 3: 35 mL/min/kg)

---

# method notes: Intrinsic clearance in human liver microsomes
# Format: ADME, Microsome
# test conditions: liver microsomes, read-out: CLH
reported endpoint: microsomal CLint (µL/min/mg)

Previously resolved entries follow.
molecule	microsomal CLint, µL/min/mg
C=CC(=O)N1CCN2c3c(cnc4cc(-c5c(O)cccc5F)c(Cl)cc34)N(C)C[C@H]2C1	26
C=CC(=O)N1CCN2c3c(cnc4c(F)c(-c5c(O)cccc5F)c(Cl)cc34)OC[C@H]2C1 (atropisomer aR)	17
C=CC(=O)N1CCN2c3c(cnc4cc(-c5c(O)cccc5F)c(Cl)cc34)NC(=O)[C@H]2C1	34
C=CC(=O)N1CCN2c3c(cnc4cc(-c5c(O)cccc5F)c(Cl)cc34)N(C)C(=O)[C@H]2C1	24
C=CC(=O)N1CCN2c3c(cnc4cc(-c5c(C)ccc6[nH]ncc56)c(Cl)cc34)OC[C@@H]2C1 (single isomer, unassigned; atropisomer 2)	103

a. C=CC(=O)N1CCN(c2ncnc3cc(-c4c(C)ccc5[nH]ncc45)c(Cl)cc23)CC1
b. C=CC(=O)N1CCN2c3c(cnc4c(F)c(-c5c(O)cccc5F)c(Cl)cc34)N(C)C(=O)[C@H]2C1
Query block: Which of the two gives a bigger number for microsomal CLint: a or b ? // caller expects the label of the chosen entry
Result block: a

---

# method notes: Intrinsic clearance in human liver microsomes
# Type: ADME, Microsome
# test conditions: liver microsomes, read-out: CLH
reported endpoint: microsomal CLint (µL/min/mg)

compound	microsomal CLint (µL/min/mg)
C=CC(=O)N1C[C@@H]2C(=O)N(C)c3cnc4c(F)c(-c5c(O)cccc5F)c(Cl)cc4c3N2C[C@H]1C	21
C=CC(=O)N1CCN2c3c(cnc4cc(-c5c(C)ccc6[nH]ncc56)c(Cl)cc34)OCC[C@@H]2C1	81

P. C=CC(=O)N1CCN2c3c(cnc4cc(-c5c(O)cccc5F)c(Cl)cc34)NC[C@H]2C1
Q. C=CC(=O)N1CCN2c3c(cnc4c(C)c(-c5c(O)cccc5F)c(Cl)cc34)OC[C@H]2C1 (single isomer, unassigned; atropisomer)
Query block: Between P and Q , whose measured microsomal CLint reads higher? Identify your selection by its label.
Result block: Q
(Q: 28 µL/min/mg, P: 18 µL/min/mg)

---

# method notes: GSH reactivity in PBS buffer assessed as half life at pH 7.4 and 37 degree C in presence of glutathione
# Type: physicochemical
# test conditions: PBS buffer with glutathione
reported endpoint: half-life (h)

Solved entries:
C=CC(=O)N1C[C@@H]2COc3cnc4cc(-c5c(O)cccc5F)c(Cl)cc4c3N2C[C@H]1C 5.42
C=CC(=O)N1C[C@@H]2COc3cnc4cc(-c5c(O)cccc5F)c(Cl)cc4c3N2C[C@@H]1C 9.75

P. C=CC(=O)N1C[C@@H]2C(=O)N(C)c3cnc4c(F)c(-c5c(O)cccc5F)c(Cl)cc4c3N2C[C@H]1C
Q. C=CC(=O)N1CCN2c3c(cnc4c(F)c(-c5c(O)cccc5F)c(Cl)cc34)N(C)C(=O)[C@H]2C1
Query block: Between P and Q , which one has the lower reported half-life value? Please identify the chosen entry by its label.
Result block: P
(P: 5.57 h, Q: 15.5 h)

---

Recorded pIC50 values for a group of compounds are listed next.
# measurement target: GTPase KRas (Homo sapiens, UniProt P01116, G12C)
# method notes: Inhibition of GDP bound biotinylated human C-terminal Avi/His6-tagged KRAS G12C mutant (1 to 166 residues) expressed in Escherichia coli BL21 (DE3) assessed as reduction in SOS1-mediated GDP/GTP nucleotide exchange by preventing recognition between KRAS G12C mutant and Ras binding domain of N-terminal Avi/GST-tagged Raf-1 (51 to 149 residues) preincubated for 4 hrs followed by SOS1 and GTPgammaS addition by FRET assay
pIC50 here: minus log base 10 of the concentration, concentration in moles per litre.

Worked set:
compound	value reported
C=CC(=O)N1CCN2c3c(cnc4cc(-c5c(C)ccc6[nH]ncc56)c(Cl)cc34)OCC[C@@H]2C1	5.36
C=CC(=O)N1CCN2c3c(cnc4c(F)c(-c5c(O)cccc5F)c(Cl)cc34)OC[C@H]2C1 (atropisomer aR)	7.80
C=CC(=O)N1CCN2c3c(cnc4cc(-c5c(O)cccc5F)c(Cl)cc34)N(C)C(=O)[C@H]2C1	6.82

Query block: Complete the entry with pIC50 for C=CC(=O)N1C[C@@H]2COc3cnc4cc(-c5c(O)cccc5F)c(Cl)cc4c3N2C[C@H]1C
Result block: 7.28

Query block: In one line, give reported pIC50 of the entry C=CC(=O)N1CCN(c2ncnc3cc(-c4c(C)ccc5[nH]ncc45)c(Cl)cc23)CC1 .
Result block: 6.30

Query block: Note down pIC50 recorded for C=CC(=O)N1CCN2c3c(cnc4cc(-c5c(C)ccc6[nH]ncc56)c(Cl)cc34)OCC[C@H]2C1
Result block: 6.20

---

# method notes: Intrinsic clearance in rat hepatocytes assessed per 10^-6 cells
# Type: ADME, cell-based, Hepatocyte
reported endpoint: hepatocyte intrinsic clearance (µL/min)

Example compounds with recorded hepatocyte intrinsic clearance:
compound	hepatocyte intrinsic clearance [µL/min]
C=CC(=O)N1CCN2c3c(cnc4c(F)c(-c5c(O)cccc5F)c(Cl)cc34)OC[C@H]2C1 (atropisomer aR)	22
C=CC(=O)N1CCN2c3c(cnc4c(F)c(-c5c(O)cccc5F)c(Cl)cc34)N(C)C(=O)[C@H]2C1	10
C=CC(=O)N1CCN2c3c(cnc4cc(-c5c(O)cccc5F)c(Cl)cc34)N(C)C[C@H]2C1	99
C=CC(=O)N1CCN2c3c(cnc4cc(-c5c(O)cccc5F)c(Cl)cc34)OC[C@H]2C1	32
C=CC(=O)N1CCN(c2ncnc3cc(-c4c(C)ccc5[nH]ncc45)c(Cl)cc23)CC1	56

1. C=CC(=O)N1C[C@@H]2C(=O)N(C)c3cnc4c(F)c(-c5c(O)cccc5F)c(Cl)cc4c3N2C[C@H]1C
2. C=CC(=O)N1CCN2c3c(cnc4c(C)c(-c5c(O)cccc5F)c(Cl)cc34)OC[C@H]2C1 (single isomer, unassigned; atropisomer)
Query block: Which value of hepatocyte intrinsic clearance is smaller, the one for 1 or the one for 2 ? Identify your selection by its label.
Result block: 1
(1: 11 µL/min, 2: 40 µL/min)

---

# method notes: Volume of distribution at steady state in Han Wistar rat at 2 umol/kg, po or 1 umol/kg, iv
# test conditions: in vivo
reported endpoint: Vd (L/kg)

C=CC(=O)N1CCN2c3c(cnc4cc(-c5c(O)cccc5F)c(Cl)cc34)OC[C@H]2C1 1.2
C=CC(=O)N1CCN2c3c(cnc4c(F)c(-c5c(O)cccc5F)c(Cl)cc34)N(C)C(=O)[C@H]2C1 0.8
C=CC(=O)N1C[C@@H]2C(=O)N(C)c3cnc4c(F)c(-c5c(O)cccc5F)c(Cl)cc4c3N2C[C@H]1C 1
C=CC(=O)N1C[C@@H]2COc3cnc4cc(-c5c(O)cccc5F)c(Cl)cc4c3N2C[C@H]1C 0.6

---

# method notes: in vivo
# test conditions: Han Wistar, rat, po, 2 umol/kg
reported endpoint: bioavailability (%)

1. C=CC(=O)N1CCN2c3c(cnc4c(F)c(-c5c(O)cccc5F)c(Cl)cc34)N(C)C(=O)[C@H]2C1
2. C=CC(=O)N1C[C@@H]2C(=O)N(C)c3cnc4c(F)c(-c5c(O)cccc5F)c(Cl)cc4c3N2C[C@H]1C
Query block: For the two items 1 and 2 , which reports the higher bioavailability value? Use the label to indicate which entry you chose.
Result block: 2
(2: 94%, 1: 56%)

---

# method notes: Distribution coefficient, log D of compound at pH 7.4
# Format: physicochemical
# test conditions: octanol/water, read-out: logD
reported endpoint: logD

compound	logD
C=CC(=O)N1CCN2c3c(cnc4cc(-c5c(C)ccc6[nH]ncc56)c(Cl)cc34)OC[C@@H]2C1 (single isomer, unassigned; atropisomer 2)	4.3
C=CC(=O)N1CCN2c3c(cnc4c(C)c(-c5c(O)cccc5F)c(Cl)cc34)OC[C@H]2C1 (single isomer, unassigned; atropisomer)	3.8
C=CC(=O)N1CCN2c3c(cnc4cc(-c5c(O)cccc5F)c(Cl)cc34)N(C)C[C@H]2C1	4.1
C=CC(=O)N1CCN2c3c(cnc4c(OC)c(-c5c(O)cccc5F)c(Cl)cc34)OC[C@H]2C1 (single isomer, unassigned; atropisomer 2)	3
C=CC(=O)N1CCN(c2ncnc3cc(-c4c(C)ccc5[nH]ncc45)c(Cl)cc23)CC1	3.5
C=CC(=O)N1CCN2c3c(cnc4cc(-c5c(O)cccc5F)c(Cl)cc34)NC(=O)[C@H]2C1	3
C=CC(=O)N1CCN2c3c(cnc4cc(-c5c(O)cccc5F)c(Cl)cc34)NC[C@H]2C1	3.3
C=CC(=O)N1CCN2c3c(cnc4cc(-c5c(O)cccc5F)c(Cl)cc34)N(C)C(=O)[C@H]2C1	3
C=CC(=O)N1CCN2c3c(cnc4c(F)c(-c5c(O)cccc5F)c(Cl)cc34)N(C)C(=O)[C@H]2C1	2.9
C=CC(=O)N1CCN2c3c(cnc4c(F)c(-c5c(O)cccc5F)c(Cl)cc34)OC[C@H]2C1 (atropisomer aR)	3.4
C=CC(=O)N1C[C@@H]2C(=O)N(C)c3cnc4c(F)c(-c5c(O)cccc5F)c(Cl)cc4c3N2C[C@H]1C	3.4
C=CC(=O)N1CCN2c3c(cnc4cc(-c5c(C)ccc6[nH]ncc56)c(Cl)cc34)OC[C@H]2C1 (single isomer, unassigned; atropisomer 1)	4.2
C=CC(=O)N1CCN2c3c(cnc4cc(-c5c(O)cccc5F)c(Cl)cc34)OC[C@H]2C1	3.6
C=CC(=O)N1C[C@@H]2COc3cnc4cc(-c5c(O)cccc5F)c(Cl)cc4c3N2C[C@H]1C	3.8
C=CC(=O)N1C[C@@H]2COc3cnc4cc(-c5c(O)cccc5F)c(Cl)cc4c3N2C[C@@H]1C	3.7
